Reference source: patent US4652563A

- experimentDescription: Anti-hypertensive activity: fall in blood pressure in anaesthetised rats, intravenous
- Format: in vivo, rat
- statedConditions: Rattus norvegicus, iv, from dose response graph, read-out: dose required to lower blood pressure by 40 mm Hg
reportedMetric: ED (40 mm Hg) (µmol/kg)
Give bare numbers, in µmol/kg.

Below, 3 compounds whose answers are already recorded.
compound: Cc1cc(CCOCC2CC2)ccc1OCC(O)CNCCC(=O)Nc1ccc(C2=NNC(=O)CC2C)cc1 (stereo not shown)
ED (40 mm Hg), µmol/kg: 2.95
//
compound: CCCc1cc(CCOCC2CC2)ccc1OCC(O)CNCCC(=O)Nc1ccc(C2=NNC(=O)CC2C)cc1 (stereo not shown)
ED (40 mm Hg), µmol/kg: 3.15
//
compound: CC1CC(=O)NN=C1c1ccc(NC(=O)CCNC[C@H](O)COc2ccc(CCOCC3CC3)cc2)cc1 (single isomer, unassigned; (-))
ED (40 mm Hg), µmol/kg: 2.1

Now for another entry.
**Query** Please give the measured ED (40 mm Hg) for this compound: CC(C)(C)NCC(O)COc1ccccc1-c1ccc(NN)nn1 (stereo not shown) [Prizidilol, reference compound]
**Result** 14
